- assay_summary: Metabolic stability assessed as cynomolgus monkey CYP-mediated metabolism by measuring half life
- Assay type: ADME, Macaca fascicularis
experimental_readout: half-life (min)
One number for each entry, in min.

The compound listed as CCC(c1nc2ncc(Cl)cc2[nH]1)[C@H]1CC[C@@H](c2ccnc3ccc(C(F)(F)F)cc32)CC1 (stereo partly specified) shows half-life equal to 21

* * *

- assay_summary: Permeability across apical to basolateral side in human Caco2 cells
- Assay type: ADME, cell-based
- assay_context: Caco-2, read-out: permeability
experimental_readout: Papp A→B (×10⁻⁶ cm/s)
Give bare numbers, in ×10⁻⁶ cm/s.

The molecule listed as CCC(c1nc2ncc(Cl)cc2[nH]1)[C@H]1CC[C@@H](c2ccnc3ccc(C(F)(F)F)cc32)CC1 (stereo partly specified) shows Papp A→B equal to 11.3
